tested on: A549/ATCC NSCLC; test: NCI-60 one-dose screen, 48 h (100 = growth as untreated, 0 = no growth, -100 = all killed); conditions: 10 µM unless noted
About 83,000 compounds went through this panel and 20% of them were active in at least one assay; those are over-represented in the sample as a whole.
Each entry below carries its reported growth.
Number in %, nothing else.

{"columns": ["Molecule", "Measurement units", "growth"],
 "data": [
  ["COC(=O)CNS(=O)(=O)c1ccc2c(c1)Cc1cc(S(=O)(=O)NCC(=O)OC)ccc1-2", "%", 99.7],
  ["O=C(O)c1cn(-c2ccccc2)nc1-c1ccc(O)cc1", "%", 92.4],
  ["Cc1cc(O)c(C2=NN(c3ccc(S(N)(=O)=O)cc3)C(c3ccc(Cl)cc3)C2)c(C)c1Cl (stereo not given)", "%", 33.2],
  ["CCOc1ccc([C@@H]2[C@@H](Oc3ccccc3)C(=O)N2c2cc(OC)c(OC)c(OC)c2)cc1", "%", 23.1],
  ["COc1ccc(NC(=O)c2ccc(C(F)(F)F)nc2Nc2ccc(Cl)cc2C)cc1Cl", "%", 14.2],
  ["COc1ccc(/C(=C\\c2ccc3c(c2)OCO3)C(=O)Nc2nc3ccc(F)cc3s2)cc1OC", "%", 99.7],
  ["CN=C1C=C/C(=N/N=c2/ccn(O)cc2C)C=C1C", "%", 88.8],
  ["CCCCCCCCCC1=NC(C)(C)CN1C(C)(C)CO", "%", 99.6],
  ["COc1ccc(C2CC(c3ccc(Nc4ccnc5cc(Cl)ccc45)cc3)=NN2c2ccccc2)cc1 (stereo not given)", "%", 85.8]
]}

Continue with the molecule presented below.
### Prompt Fill in: growth of CC(=O)c1nn(-c2ccccc2)/c(=N\N=C\c2coc3ccc(F)cc3c2=O)s1 is ___
### Response 109

* * *

system: HCC-2998 colon; test: NCI-60 one-dose screen, 48 h; details: 10 µM unless noted
The panel holds about 83,000 compounds, 20% with a hit somewhere; the sample as a whole holds those more often. Activity calls are given as the source filed them. The calls were made as follows: active = growth percent below 10; inactive = the rest.
Choose the fitting class; nothing outside 1 (active), 0 (inactive) is accepted.

Solved cases below.
{"columns": ["Compound", "Label"],
 "data": [
  ["NC(=S)N/N=C(/c1cccs1)C1CC1", 0],
  ["COc1ccc(/C=C2\\Cc3c(Br)cccc3C2=O)c(OC)c1", 0],
  ["C=CCn1c(C)nc2cc(Nc3nc(Nc4ccc5nc(C)n(CC=C)c5c4)nc4ccccc34)ccc21", 0],
  ["O=C(Nc1ccc(OS(=O)(=O)c2ccc(F)cc2)cc1)C12CC3CC(CC(C3)C1)C2", 0],
  ["Cc1ccc(Nc2nc(NCCO)c3ccccc3n2)cc1C", 0],
  ["CCOC(=O)C1=C(C)NC(SCc2nnc(-c3ccc(Cl)cc3)o2)=NC1c1ccc(Br)cc1 (configuration not stated)", 0],
  ["CCN(CC)CCCC(C)N/C(c1cccc(OC)c1)=c1\\c(=O)[nH]n(-c2c3ccccc3nc3ccccc23)c(=O)\\c1=C(/NC(C)CCCN(CC)CC)c1cccc(OC)c1 (configuration not stated)", 1],
  ["COc1ccc(C2=NN(C=O)C(c3ccc(OS(=O)(=O)c4ccc(C)cc4)c(OC)c3)C2)cc1 (configuration not stated)", 0],
  ["Oc1ccc(Cl)cc1-c1cc(-c2ccccc2Cl)[nH]n1", 0],
  ["CN(C)CCOc1nc2c3cccnc3cc(-c3cccc(Cl)c3)c2c2ncccc12", 1]
]}

### Prompt For c1ccc(-c2[nH]c3ccccc3c2-c2ccccc2)cc1 , which call appears in the assay record?
### Response 0

### Prompt Same question, COc1ccc2nc(C)cc(Nc3ccccc3O)c2c1 this time
### Response 0

### Prompt Same question, CCN(CC)CCCCCCCNc1cc(OC)cc2c(C)ccnc12 this time
### Response 0

### Prompt Same question, O=C(CS)OCC(COC(=O)CS)(COC(=O)CS)COC(=O)CS this time
### Response 0

### Prompt Same question, Cc1ccc(-c2nc3ccccc3c(=O)n2/N=C/c2cccc3ccccc23)cc1 this time
### Response 0

### Prompt Same question, COc1ccc([C@@H]2[C@@H](Oc3ccccc3)C(=O)N2c2cc(OC)c(OC)c(OC)c2)cc1F this time
### Response 0

### Prompt Same question, CCCNC(=S)N/N=C(\C)c1ccccn1 this time
### Response 0

### Prompt Same question, COc1cc(/C=C2\C(=O)Nc3ccc(N(C)C)cc32)cc(OC)c1OC this time
### Response 0

### Prompt Same question, CCC(=O)NC(O)C(Cl)(Cl)C(C)Cl (configuration not stated) this time
### Response 0
